- test.target: PRMT5/MEP50 complex (Homo sapiens)
- Sequence (O14744 whole entry): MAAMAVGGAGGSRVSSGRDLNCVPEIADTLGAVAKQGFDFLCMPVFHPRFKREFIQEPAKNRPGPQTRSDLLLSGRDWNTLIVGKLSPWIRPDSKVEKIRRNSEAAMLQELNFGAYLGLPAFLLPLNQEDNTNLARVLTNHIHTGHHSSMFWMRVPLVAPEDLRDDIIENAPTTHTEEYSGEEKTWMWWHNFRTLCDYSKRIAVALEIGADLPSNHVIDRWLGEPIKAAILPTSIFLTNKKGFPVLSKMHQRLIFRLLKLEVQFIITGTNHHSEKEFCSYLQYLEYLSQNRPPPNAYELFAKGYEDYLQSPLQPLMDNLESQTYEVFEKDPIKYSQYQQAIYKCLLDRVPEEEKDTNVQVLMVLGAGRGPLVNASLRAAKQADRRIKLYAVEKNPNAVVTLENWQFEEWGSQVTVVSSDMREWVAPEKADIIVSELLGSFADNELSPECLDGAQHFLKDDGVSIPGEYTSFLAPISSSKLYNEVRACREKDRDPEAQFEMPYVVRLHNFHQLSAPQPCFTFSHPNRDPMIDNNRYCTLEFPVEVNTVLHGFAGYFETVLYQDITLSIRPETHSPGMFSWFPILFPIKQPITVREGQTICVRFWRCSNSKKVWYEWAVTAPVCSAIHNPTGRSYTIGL
- Sequence (Q9BQA1 whole entry, further chain): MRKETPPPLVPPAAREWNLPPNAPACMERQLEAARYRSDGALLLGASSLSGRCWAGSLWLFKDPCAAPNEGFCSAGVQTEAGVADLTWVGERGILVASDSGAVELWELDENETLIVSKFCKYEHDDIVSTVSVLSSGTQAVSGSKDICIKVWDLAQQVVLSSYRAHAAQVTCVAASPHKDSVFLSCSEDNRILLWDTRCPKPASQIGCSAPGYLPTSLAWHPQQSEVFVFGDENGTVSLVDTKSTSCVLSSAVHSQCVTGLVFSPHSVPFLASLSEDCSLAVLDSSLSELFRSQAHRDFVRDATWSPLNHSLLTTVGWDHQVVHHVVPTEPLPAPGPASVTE
- assay.comment: Chemiluminescent Assay: A PRMT5 chemiluminescent assay was used to measure the […] activity of PRMT5. Biotinylated histone peptides were synthesized and attached to 384-well plates. Compound serial dilutions were performed and added to the assay plate. Histone H4 monomethyl R3 antibody was obtained from Abcam. A master mix for each well was prepared and human PRMT5/MEP50 (expressed in HEK293 cells) diluted in assay buffer to a concentration of 5 ng/μL. The reaction was incubated and slowly rotated for 60 minutes at the point of PRMT5/MEP50 addition. The supernatant from the wells was removed and blocking buffer was added to each well and rotated for 10 minutes. The primary antibody was diluted and added to every well for 60 minutes, before it was removed and the wells washed. The horse radish peroxidase (HRP)-coupled secondary antibody was diluted and added to each well with an incubation time of 30 minutes. The HRP chemiluminescent substrate was added to every well. The plate was read on a Flourstar Omega BMG Labtech instrument (Ortenberg, Germany) and the analysis of IC50 was performed using the Flourstar Omega BMG Labtech software.
attribute.measured: pIC50
# reply with the number alone; pIC50 is -log10 of concentration in mol/L

[in] Name the recorded pIC50 of the item O=C(NCC(O)CN1CCc2[nH]c3ccccc3c2C1)c1ccc(C(=O)N2C3CCC2COC3)cc1 (centres undefined) in your answer.
[out] 5.76

[in] Provide one value: measured pIC50 of Cn1c2c(c3ccccc31)CN(CC(O)CNC(=O)c1ccc(C(=O)N3C4CCC3COC4)cc1)CC2 (centres undefined)
[out] 5.48

[in] Hello, please tell me recorded pIC50 for this one: O=C(NCC(O)CN1CCc2[nH]c3ccccc3c2C1)c1cc(NC2CCC2)ncn1 (centres undefined)
[out] 5.77

[in] Read the entry CN1CCN(c2nc(NC3CCC3)cc(C(=O)NCC(O)CN3CCc4[nH]c5ccccc5c4C3)n2)CC1 (centres undefined) and write its reported pIC50.
[out] 6.28
